- testedTarget: CDK2/cyclin A (Homo sapiens, UniProt P24941)
- protocolSummary: Inhibitory activity against CDK2/cyclin A enzyme (GST-RB phosphorylation, P32-γ-ATP, scintillation counting)
- conditionParameters: 100 μM ATP, GST-RB substrate, 30° C. 30 minutes
pIC50: −log10 of the molar value.
observable: pIC50

> print(dat)
                                   compound  measured
1  O=c1c(O)c(-c2ccc(O)c(O)c2)oc2ccccc12 [Compound 63]    > 5.00
2  COc1ccc(-c2oc3ccccc3c(=O)c2O)cc1 [Compound 11]    < 4.00
3  Cc1cc2oc(-c3ccc(O)c(O)c3)c(O)c(=O)c2cc1Cl [Compound 22]    > 5.00
4  O=c1cc(-c2ccccc2)oc2cc(O)ccc12 [Compound 3, 7-hydroxy-2-phenyl-chromen-4-one]    < 3.70

###

- testedTarget: CDK4/cyclin D1 (Homo sapiens)
- Sequence (P11802 whole entry, species assumed): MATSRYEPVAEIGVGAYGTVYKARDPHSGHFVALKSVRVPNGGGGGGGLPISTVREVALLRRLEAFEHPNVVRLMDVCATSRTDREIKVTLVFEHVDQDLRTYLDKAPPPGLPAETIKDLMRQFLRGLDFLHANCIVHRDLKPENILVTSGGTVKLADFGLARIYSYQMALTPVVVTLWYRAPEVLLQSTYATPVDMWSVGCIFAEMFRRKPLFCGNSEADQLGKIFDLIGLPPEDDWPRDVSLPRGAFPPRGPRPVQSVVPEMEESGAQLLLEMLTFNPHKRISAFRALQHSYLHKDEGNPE
- Sequence (P24385 whole entry partner, species assumed): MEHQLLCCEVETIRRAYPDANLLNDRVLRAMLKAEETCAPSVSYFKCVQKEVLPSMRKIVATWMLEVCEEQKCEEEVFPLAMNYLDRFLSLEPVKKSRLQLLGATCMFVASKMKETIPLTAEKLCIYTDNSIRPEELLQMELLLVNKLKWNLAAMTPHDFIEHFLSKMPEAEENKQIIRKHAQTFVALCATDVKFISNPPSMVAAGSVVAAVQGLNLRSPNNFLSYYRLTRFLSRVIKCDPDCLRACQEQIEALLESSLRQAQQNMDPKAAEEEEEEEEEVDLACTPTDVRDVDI
- protocolSummary: Inhibitory activity against CDK4/cyclin D1 enzyme (GST-RB phosphorylation, P32-γ-ATP, scintillation counting)
- conditionParameters: CDK4/cyclin D1, 100 μM ATP, GST-RB substrate, 30° C. 30 minutes
pIC50: −log10 of the molar value.
observable: pIC50

> print(dat)
                          structureassmiles  measured
1  COc1ccc2c(=O)c(O)c(-c3ccc(O)c(O)c3)oc2c1    > 4.52
2   Cc1ccc2oc(-c3ccc(O)c(O)c3)c(O)c(=O)c2c1    > 5.00
3   O=c1c(O)c(-c2ccc(O)c(O)c2)oc2ccc(F)cc12    > 5.00
4  O=c1c(O)c(-c2ccc(O)c(O)c2)oc2ccc(Cl)cc12    > 5.00

###

- testedTarget: CDK2/cyclin A (Homo sapiens, UniProt P24941)
- protocolSummary: Inhibitory activity against CDK2/cyclin A enzyme (GST-RB phosphorylation, P32-γ-ATP, scintillation counting)
- conditionParameters: 100 μM ATP, GST-RB substrate, 30° C. 30 minutes
pIC50: −log10 of the molar value.
observable: pIC50

> print(dat)
                                   compound  observable  measured
1  O=c1c(O)c(-c2ccc(O)c(O)c2)oc2c(Br)cc(Br)cc12 [Compound 20]       pIC50    > 5.30
2  O=c1c(O)c(-c2ccc(O)c(O)c2)oc2c(Cl)cc(Cl)cc12 [Compound 19]       pIC50    > 5.00
3  O=c1c(O)c(-c2ccc(O)c(O)c2)oc2ccc(O)cc12 [Compound 14]       pIC50    > 5.30
4  Nc1ccc2oc(-c3ccc(O)c(O)c3)c(O)c(=O)c2c1 [Compound 15]       pIC50    > 5.30
5  O=c1c(O)c(-c2ccc(O)c(O)c2)oc2cc(O)ccc12 [Compound 64]       pIC50    > 5.30
6  CN1CCN(c2ccc(S(=O)(=O)Nc3ccc4oc(-c5ccc(O)c(O)c5)c(O)c(=O)c4c3)cc2N)CC1 [Compound 50]       pIC50    < 3.70
7  COc1ccc(-c2oc3c([N+](=O)[O-])cc(Cl)cc3c(=O)c2O)cc1 [Compound 9]       pIC50    < 4.00

Just for reference, patent US6500846B1 is where these values come from.
